Where do the numbers come from? From patent US20120053053A1.

Tested on: Solanum nigrum (SOLNI)
Experiment: Post-emergence biological efficacy (percentage damage)
Format: in vivo
Conditions: Solanum nigrum, 312 h, dose 1,000 g/ha, evaluated after 13 days, 100=total damage, 0=no damage
measurement_label: pest or weed control at 1000 g/ha

C=Cc1c(N)nc(-c2ccc(Cl)c(N(C)C)c2F)nc1C(=O)OCCOCC [Compound 33-396]    90%
C=Cc1c(N)nc(-c2ccc(Cl)c(F)c2)nc1C(=O)OC [Compound 19-61]    100%

What measured pest or weed control at 1000 g/ha goes with C=Cc1c(N)nc(-c2cc(F)c(Cl)c(F)c2)nc1C(=O)OC [Compound 30-61] ?
80%

What measured pest or weed control at 1000 g/ha goes with C=Cc1c(N)nc(-c2ccc3c(c2)OCO3)nc1C(=O)OC [Compound 70-61] ?
90%

What measured pest or weed control at 1000 g/ha goes with C=Cc1c(N=[N+]=[N-])nc(C2CC2)nc1C(=O)OC [Compound 2-399] ?
20%

====

System: Amaranthus retoflexus (AMARE)
Experiment: Pre-emergence biological efficacy (percentage damage)
Assay type: in vivo
Settings: Amaranthus retroflexus, 312 h, dose 1,000 g/ha, evaluated after 13 days, 100=total damage, 0=no damage
Quick list: pest or weed control at 1000 g/ha per entry.
Record the value in %, omitting the unit from your answer.

COC(=O)c1nc(C2CC2)nc(N(C)C)c1C [Compound 2-221]    60
Cc1c(OCC(=O)OC(C)(C)C)nc(C2CC2)nc1OCC(=O)OC(C)(C)C [Compound 2-389]    20
C=Cc1c(N)nc(-c2ccc(Cl)c(N(C)C)c2F)nc1C(=O)O [Compound 33-21]    100
C=Cc1c(N)nc(-c2ccc(F)c(C)c2)nc1C(=O)OC [Compound 45-61]    100

Please examine the following record next.
What measured pest or weed control at 1000 g/ha goes with C=Cc1c(N)nc(-c2ccc(F)c(C(F)(F)F)c2)nc1C(=O)OC [Compound 43-61] ?
60

====

Quick list: pest or weed control at 1000 g/ha per entry.
System: Solanum nigrum (SOLNI)
Experiment: Post-emergence biological efficacy (percentage damage)
Type: in vivo
Conditions: Solanum nigrum, 312 h, dose 1,000 g/ha, evaluated after 13 days, 100=total damage, 0=no damage
Procedure: Seeds of Alopecurus myosuroides (ALOMY), Setaria faberi (SETFA), Echinochloa crus-galli (ECHCG), Solanum nigrum (SOLNI), Amaranthus retoflexus (AMARE) and Ipomea hederaceae (IPOHE) were sown in standard soil in pots. […] After 13 days the test was evaluated (100=total damage to plant; 0=no damage to plant).
Record the value in %, omitting the unit from your answer.

The following compounds have reported results that may help.
COC(=O)c1nc(-c2ccc(C(C)=O)c(OC)c2F)nc(N)c1C(C)=O    70
C=Cc1c(N)nc(-c2cc(F)cc(Cl)c2)nc1C(=O)OC    20
C=Cc1c(N)nc(-c2ccc(SC)cc2)nc1C(=O)OC    60
C=Cc1c(N)nc(-c2ccc(F)c(F)c2)nc1C(=O)OC    90

What measured pest or weed control at 1000 g/ha goes with "C=Cc1c(N)nc(-c2ccc(Cl)c(OC)c2)nc1C(=O)OC" ?
80

What measured pest or weed control at 1000 g/ha goes with "COC(=O)c1nc(C2CC2)nc(N)c1C" ?
90

====

Test system: Amaranthus retoflexus (AMARE)
Assay: Pre-emergence biological efficacy (percentage damage)
Type: in vivo
Conditions: Amaranthus retroflexus, 312 h, dose 1,000 g/ha, evaluated after 13 days, 100=total damage, 0=no damage
measurement_label: pest or weed control at 1000 g/ha (%)
Record the value in %, omitting the unit from your answer.

Lab note: need pest or weed control at 1000 g/ha with Amaranthus retoflexus (AMARE) for entry "C=Cc1c(N)nc(-c2ccc(Cl)cc2F)nc1C(=O)OC" , please look it up.
100

====

Quick list: pest or weed control at 1000 g/ha per entry.
System: Solanum nigrum (SOLNI)
Test: Post-emergence biological efficacy (percentage damage)
Type: in vivo
Conditions: Solanum nigrum, 312 h, dose 1,000 g/ha, evaluated after 13 days, 100=total damage, 0=no damage
Record the value in %, omitting the unit from your answer.

C=CCc1c(N)nc(-c2ccc(C(F)(F)F)cc2)nc1C(=O)OC [Compound 31-63]    50

What measured pest or weed control at 1000 g/ha goes with C=Cc1c(N)nc(-c2ccc(C(F)(F)F)cc2)nc1C(=O)OC [Compound 31-61] ?
70

What measured pest or weed control at 1000 g/ha goes with C=Cc1c(N)nc(-c2cc(F)c(F)c(F)c2)nc1C(=O)OC [Compound 63-61] ?
20

What measured pest or weed control at 1000 g/ha goes with C=Cc1c(N)nc(-c2ccc3c(c2)OCCO3)nc1C(=O)OC [Compound 71-61] ?
60

What measured pest or weed control at 1000 g/ha goes with C=Cc1c(OC)nc(C2CC2)nc1C(=O)OC [Compound 2-398] ?
80

====

System: Amaranthus retoflexus (AMARE)
Assay: Pre-emergence biological efficacy (percentage damage)
Format: in vivo
Details: Amaranthus retroflexus, 312 h, dose 1,000 g/ha, evaluated after 13 days, 100=total damage, 0=no damage
measurement_label: pest or weed control at 1000 g/ha (%)
Record the value in %, omitting the unit from your answer.

The following compounds have reported results that may help.
C=Cc1c(N)nc(-c2ccc(Cl)c(N(C)C)c2F)nc1C(=O)OCCOCC [Compound 33-396]    100
C=Cc1c(N=[N+]=[N-])nc(C2CC2)nc1C(=O)OC [Compound 2-399]    0
C=Cc1c(SC)nc(C2CC2)nc1C(=O)OC [Compound 2-400]    90
C=Cc1c(N)nc(-c2ccc(F)c(F)c2)nc1C(=O)OC [Compound 67-61]    100
COC(=O)c1nc(C2CC2)nc(N)c1C [Compound 2-41]    70

Lab note: need pest or weed control at 1000 g/ha with Amaranthus retoflexus (AMARE) for entry COC(=O)c1nc(-c2ccc(C)c(OC)c2F)nc(N)c1C [Compound 60-41] , please look it up.
0

Lab note: need pest or weed control at 1000 g/ha with Amaranthus retoflexus (AMARE) for entry C=CCc1c(N)nc(-c2ccc(C(F)(F)F)cc2)nc1C(=O)OC [Compound 31-63] , please look it up.
0

Lab note: need pest or weed control at 1000 g/ha with Amaranthus retoflexus (AMARE) for entry C=Cc1c(N)nc(-c2ccc(Cl)c(N(C)C)c2F)nc1C(=O)OCC(C)C [Compound 33-326] , please look it up.
60

Lab note: need pest or weed control at 1000 g/ha with Amaranthus retoflexus (AMARE) for entry C=Cc1c(N)nc(-c2ccc(Cl)c(N(C)C)c2F)nc1C(=O)OCCCC [Compound 33-391] , please look it up.
100

====

Tested on: Echinochloa crus-galli (ECHCG)
Assay: Pre-emergence biological efficacy (percentage damage)
Assay type: in vivo
Conditions: Echinochloa crus-galli, 312 h, dose 1,000 g/ha, evaluated after 13 days, 100=total damage, 0=no damage
Quick list: pest or weed control at 1000 g/ha per entry.
Record the value in %, omitting the unit from your answer.

The following compounds have reported results that may help.
C=Cc1c(N)nc(-c2ccc(F)c(OC)c2)nc1C(=O)OC [Compound 42-61]    10
C=Cc1c(N)nc(-c2ccc(Cl)c(N(C)C)c2F)nc1C(=O)O [Compound 33-21]    100
C=Cc1c(N)nc(-c2cc(F)cc(Cl)c2)nc1C(=O)OC [Compound 61-61]    0
COC(=O)c1nc(-c2ccc(Cl)c(N(C)C)c2F)nc(N)c1C1CC1 [Compound 33-58]    0

What measured pest or weed control at 1000 g/ha goes with Cc1c(OCC(=O)OC(C)(C)C)nc(C2CC2)nc1OCC(=O)OC(C)(C)C [Compound 2-389] ?
0

====

Test system: Setaria faberi (SETFA)
Assay: Post-emergence biological efficacy (percentage damage)
Type: in vivo
Details: Setaria faberi, 312 h, dose 1,000 g/ha, evaluated after 13 days, 100=total damage, 0=no damage
measurement_label: pest or weed control at 1000 g/ha

The following compounds have reported results that may help.
COC(=O)c1nc(-c2ccc(C)c(OC)c2F)nc(N)c1C    10%
C=Cc1c(N)nc(-c2ccc(F)c(F)c2)nc1C(=O)OC    10%
C=Cc1c(N=[N+]=[N-])nc(C2CC2)nc1C(=O)OC    0%
Cc1c(OCC(=O)OC(C)(C)C)nc(C2CC2)nc1OCC(=O)OC(C)(C)C    0%
COC(=O)c1nc(C2CC2)nc(N)c1/C=C/C1CC1    10%

What measured pest or weed control at 1000 g/ha goes with "C=C(C)c1c(N)nc(-c2ccc(Cl)c(N(C)C)c2F)nc1C(=O)OC" ?
0%

What measured pest or weed control at 1000 g/ha goes with "C=Cc1c(N)nc(-c2ccc(Cl)cc2)nc1C(=O)OC" ?
100%

What measured pest or weed control at 1000 g/ha goes with "C=Cc1c(N)nc(-c2cc(F)c(Cl)c(F)c2)nc1C(=O)OC" ?
0%
